A set of sequences tested on ZFP7264 linker TLPPCFRPKP (artificial), with measured binding signal (normalized ELISA):
Numbers only.

Observe how each entry below is paired with its result.
TTAGTTAAAGCGAGCTCCGAATATC (double strand) [7264 target gap A] :: 0.72
TTAGTTAAAGCGTTGCTCCGAATATC (double strand) [7264 target gap TT] :: 0.06
TTAGTTAAAGCGCTGCTCCGAATATC (double strand) [7264 target gap CT] :: 0.05
TTAGTTAAAGCGCGCTCCGAATATC (double strand) [7264 target gap C] :: 0.25
TTAGTTAAAGCGTAGCTCCGAATATC (double strand) [7264 target gap TA] :: 0.06

Next:
[ask] Tell me its binding signal (normalized ELISA) given TTAGTTAAAGCGGGCTCCGAATATC (double strand) [7264 target gap G] as the entry.
[reply] 0.77

* * *

Give measured binding signal (normalized ELISA) for each item. Keep answers brief.
Tested on: ZFP7263 (host, center linker TGSQKP) (artificial)

TTAGCCACTCTGATGGAAGTGTATC (double strand) [7263 target gap A] :: 0.01
TTAGCCACTCTGGTGGAAGTGTATC (double strand) [7263 target gap G] :: 0.03
TTAGCCACTCTGATTGGAAGTGTATC (double strand) [7263 target gap AT] :: 0.01

Give me binding signal (normalized ELISA) for each of these sequences, listed below.
1. TTAGCCACTCTGCTGGAAGTGTATC (double strand) [7263 target gap C]
2. TTAGCCACTCTGCTTGGAAGTGTATC (double strand) [7263 target gap CT]

[reply]
[0.01, 0]

* * *

Tested on: ZFP8196 linker TPDAPKPKP (artificial)
Entry flag: T if binding signal (normalized ELISA) reaches 0.01; F if it does not.

Answered examples (3):
TTAGATAAACTGCCAAAAGGCTATC (double strand) [8196 target gap C] :: T
TTAGATAAACTGACCAAAAGGCTATC (double strand) [8196 target gap AC] :: F
TTAGATAAACTGGCAAAAGGCTATC (double strand) [8196 target gap G] :: T

# input for lookup
[ask] Quick check: does TTAGATAAACTGACAAAAGGCTATC (double strand) [8196 target gap A] have binding signal (normalized ELISA) greater than or equal to 0.01?
[reply] T

* * *

A set of sequences tested on ZFP8196 linker TSPRLPAPKP (artificial), with measured binding signal (normalized ELISA):

Observe how each entry below is paired with its result.
TTAGATAAACTGTGCAAAAGGCTATC (double strand) [8196 target gap TG] :: 0.01
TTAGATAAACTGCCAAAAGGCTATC (double strand) [8196 target gap C] :: 0.14
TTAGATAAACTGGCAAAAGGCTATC (double strand) [8196 target gap G] :: 0.62
TTAGATAAACTGACCAAAAGGCTATC (double strand) [8196 target gap AC] :: 0
TTAGATAAACTGTCCAAAAGGCTATC (double strand) [8196 target gap TC] :: 0.01

Next:
[ask] Tell me its binding signal (normalized ELISA) given TTAGATAAACTGACAAAAGGCTATC (double strand) [8196 target gap A] as the entry.
[reply] 0.26

* * *

Give measured activity (normalized MEL-1) for each item. Keep answers brief.
Test system: ZFN7264 linker 1e (artificial)
Method Notes: cell_activity
Conditions: yeast, paired with 7263 ZFN
Give bare numbers.

Observe how each entry below is paired with its result.
AAAGCGTTGCTCCG (double strand) [7264 yeast half-site gap TT] :: 0.12
AAAGCGCGCTCCG (double strand) [7264 yeast half-site gap C] :: 0.14
AAAGCGAGCTCCG (double strand) [7264 yeast half-site gap A] :: 1.24

[ask] Tell me its activity (normalized MEL-1) given AAAGCGGGCTCCG (double strand) [7264 yeast half-site gap G] as the entry.
[reply] 1.4
